Parameter recovered at 5 ng/mL: see the listing below.
# PROCEDURE TEXT: Analytical recovery in overnight fasted C57BL/6N mouse plasma assessed as compound recovered at 5 ng/mL, ip

COMPOUND	recovered at 5 ng/mL
CC(C)C[C@@H]1NC(=O)[C@@H](CC(C)C)NC(=O)[C@H](Cc2ccc(O)cc2)NC(=O)[C@H](CO)NC(=O)[C@H](Cc2c[nH]c3ccccc23)NC(=O)[C@H](Cc2cnc[nH]2)NC(=O)[C@@H]2CCCN2C(=O)C[C@H](C)NC(=O)[C@@H]2CCCN2C(=O)[C@H](CCCNC(=N)N)NC1=O	> 90%

Next compound, please.
Ask | Which recovered at 5 ng/mL is reported for this compound? CCNC(=O)[C@@H]1CCCN1C(=O)[C@H](CCCNC(=N)N)NC(=O)[C@H](CC(C)C)NC(=O)[C@@H](CC(C)C)NC(=O)[C@H](Cc1ccc(O)cc1)NC(=O)[C@H](CO)NC(=O)[C@H](Cc1c[nH]c2ccccc12)NC(=O)[C@H](Cc1c[nH]cn1)NC(=O)[C@@H]1CCC(=O)N1 [LEUPROLIDE]
Reply | > 90%

---

# PROCEDURE TEXT: Metabolic stability in mouse renal epithelial cell membranes assessed as compound remaining at 10 nM measured at 30 mins
# Type: ADME, cell-based
# CONDITION SET: renal epithelial cell membranes, read-out: Stability
MEASURED PARAMETER: remaining at 0.5 h, 0.01 µM (%)
Report only the number, with the unit % understood.

Please review the entries below; each comes with its answer.
COMPOUND	MEASURED PARAMETER	VALUE MEASURED
CCNC(=O)[C@@H]1CCCN1C(=O)[C@H](CCCNC(=N)N)NC(=O)[C@H](CC(C)C)NC(=O)[C@@H](CC(C)C)NC(=O)[C@H](Cc1ccc(O)cc1)NC(=O)[C@H](CO)NC(=O)[C@H](Cc1c[nH]c2ccccc12)NC(=O)[C@H](Cc1c[nH]cn1)NC(=O)[C@@H]1CCC(=O)N1 [LEUPROLIDE]	remaining at 0.5 h, 0.01 µM	3
COc1ccc(C[C@@H]2NC(=O)[C@H](CO)NC(=O)[C@H](Cc3c[nH]c4ccccc34)NC(=O)[C@H](Cc3cnc[nH]3)NC(=O)[C@@H]3CCCN3C(=O)CNC(=O)[C@@H]3CCN3C(=O)[C@H](CCCNC(=N)N)NC(=O)[C@H](CC(C)C)NC(=O)[C@@H](Cc3c[nH]c4ccccc34)NC2=O)cc1	remaining at 0.5 h, 0.01 µM	68
CC(C)C[C@@H]1NC(=O)[C@@H](CC(C)C)NC(=O)[C@H](Cc2ccc(O)cc2)NC(=O)[C@H](CO)NC(=O)[C@H](Cc2c[nH]c3ccccc23)NC(=O)[C@H](Cc2cnc[nH]2)NC(=O)[C@@H]2CCCN2C(=O)CCCCCNC(=O)C[C@H](C)NC(=O)[C@@H]2CCCN2C(=O)[C@H](CCCNC(=N)N)NC1=O	remaining at 0.5 h, 0.01 µM	72
CC(C)C[C@@H]1NC(=O)[C@@H](CC(C)C)NC(=O)[C@H](Cc2ccc(O)cc2)NC(=O)[C@H](CO)NC(=O)[C@H](Cc2c[nH]c3ccccc23)NC(=O)[C@H](Cc2cnc[nH]2)NC(=O)[C@@H]2CCCN2C(=O)C[C@H](C)NC(=O)[C@@H]2CCCN2C(=O)[C@H](CCCNC(=N)N)NC1=O	remaining at 0.5 h, 0.01 µM	100
COc1ccc(C[C@@H]2NC(=O)[C@H](CO)NC(=O)[C@H](Cc3c[nH]c4ccccc34)NC(=O)[C@H](Cc3cnc[nH]3)NC(=O)[C@@H]3CCCN3C(=O)CC(C)NC(=O)[C@@H]3CCN3C(=O)[C@H](CCCNC(=N)N)NC(=O)[C@H](CC(C)C)NC(=O)[C@@H](CC(C)C)NC2=O)cc1 (stereo partly specified)	remaining at 0.5 h, 0.01 µM	90

Ask | Which remaining at 0.5 h, 0.01 µM is reported for this compound? `COc1ccc(C[C@@H]2NC(=O)[C@H](CO)NC(=O)[C@H](Cc3c[nH]c4ccccc34)NC(=O)[C@H](Cc3cnc[nH]3)NC(=O)[C@@H]3CCCN3C(=O)CCCCCNC(=O)C[C@H](C)NC(=O)[C@@H]3CCCN3C(=O)[C@H](CCCNC(=N)N)NC(=O)[C@H](CC(C)C)NC(=O)[C@@H](CC(C)C)NC2=O)cc1`
Reply | 90
